- System: KM12 colon
- method: NCI tumour cell line growth inhibition, 48 h
assayMetric: TGI

Returns the measured TGI for the input compound. Input: COCCOC(=O)CCn1cc(F)c(=O)[nH]c1=O
> 150 mg/L

Similarly, Cc1ccc2c3ccc4c(c3n(C)c2c1)C(=O)C=CC4=O ?
> 10 µM

Similarly, COc1ccccc1OCC(O)CO (stereo not drawn) ?
> 100 µM

Similarly, CNc1ccc([N+](=O)[O-])cc1C(=O)N1CCC[C@H]1CO ?
> 100 µM

Similarly, CCc1ccc(/C=C2/SC(=S)NC2=O)cc1 ?
> 77.3 µM

Similarly, Oc1cc(Br)cc2cc(Br)cnc12 ?
> 100 µM

Similarly, COc1ccc2c3c([nH]c2c1)[C@H]1C[C@H]2[C@H](C[C@@H](O)[C@H](OC)[C@H]2C(=O)O)CN1CC3 ?
> 100 µM

Similarly, CC12CC(=O)NN=C1c1ccccc1C2 (stereo not drawn) ?
> 100 µM

====

- Test system: NCI-H23 lung
- method: NCI tumour cell line growth inhibition, 48 h
Task for the reader: assign each of the following compounds its reported TGI.

Which TGI is reported with NCI-H23 lung for this entry: CC(Cl)CC(=O)Nc1ccc2c(c1)oc(=O)c1cc(NC(=O)CC(C)Cl)ccc12 (configuration not stated) ?
> 100 µM

Similarly, Cc1nc(-c2ccc(Cl)cc2)cn2c1nc1ccccc12 ?
> 100 µM

Similarly, CC12CC(=O)NN=C1c1ccccc1C2 (configuration not stated) ?
> 100 µM

Similarly, COc1ccc2c3c([nH]c2c1)[C@H]1C[C@H]2[C@H](C[C@@H](O)[C@H](OC)[C@H]2C(=O)O)CN1CC3 ?
> 100 µM

Similarly, Cc1ccc2c3ccc4c(c3n(C)c2c1)C(=O)C=CC4=O ?
> 10 µM

Similarly, C1CCN2CC34CC(CC5CCCN(C6CCCC3N6)C54)C2C1 (configuration not stated) ?
> 100 µM

Similarly, COc1ccccc1OCC(O)CO (configuration not stated) ?
> 100 µM

====

- System: UO-31 renal
- method: NCI tumour cell line growth inhibition, 48 h
Task for the reader: assign each of the following compounds its reported TGI.

Returns the measured TGI for the input compound. Input: CCn1cc(C2NC(=O)c3cc(F)ccc3N2)c2cccc(Cl)c21 (configuration not stated)
> 100 µM

Similarly, O=C(NNc1ccc([N+](=O)[O-])cc1)C1OC(CO)C(O)C1O (configuration not stated) ?
> 100 µM

Similarly, COC(=O)C[C@H]1[C@]2(C)C3=C(C)[C@H](c4ccoc4)CC3O[C@@H]2[C@@H]2OC(=O)[C@]3(C)CCC(=O)[C@@]1(C)[C@@H]23 (some centres not stated) ?
> 100 µM

Similarly, CC1=C(C(=O)OC(C)C)C(c2cccc([N+](=O)[O-])c2)C(C(=O)OC(CO[N+](=O)[O-])CO[N+](=O)[O-])=C(C)N1 (configuration not stated) ?
> 50.1 µM

Similarly, COCCOC(=O)CCn1cc(F)c(=O)[nH]c1=O ?
> 150 µg/mL

Similarly, COc1cc(Nc2ncc(-c3ccccc3)o2)cc(OC)c1OC ?
> 25 µM

Similarly, NC(=O)c1ccc(NC(=O)c2oc3ccccc3c2-c2cnn(-c3ccccc3)c2)cc1 ?
> 100 µM

Similarly, CC(C)=CCC/C(C)=C/CCC1(C)C2COC(=O)C21 (configuration not stated) ?
> 100 µM

Similarly, C[Si](C)(C)[C@@]1([Se]c2ccccc2)CC[C@@H]1C(=O)c1ccccc1 ?
> 100 µM

Similarly, COc1cc(SC)ccc1C(=O)N1CCCC(C)C1 (configuration not stated) ?
> 100 µM

Similarly, CCn1c2ccccc2c2cc(NC(=O)c3c(C)[nH]c(=O)[nH]c3=S)ccc21 ?
> 100 µM

Similarly, O/N=C1/CCCCC1NO (configuration not stated) ?
> 100 µM

====

- System: HCT-116 colon
- method: NCI tumour cell line growth inhibition, 48 h
Task for the reader: assign each of the following molecules its reported TGI.

Returns the measured TGI for the input molecule. Input: CCOc1ccc(N2C(N)=NC(N)=NC2(C)C)cc1
> 100 µM

Similarly, Clc1cccc(Cl)c1C1ON=C(c2ccccc2)N1C12CC3CC(CC(C3)C1)C2 (stereo not drawn) ?
59.9 µM

Similarly, CCCCCCCCCC[C@@H](O)[C@H]1CC[C@@H]([C@H]2CC[C@H]([C@H](O)CCCCCCCCCC[C@@H]3CC(CC(C)=O)C(=O)O3)O2)O1 (stereo partly drawn) ?
> 100 µM

Similarly, Cc1ccc(C)c(NC(=O)CCc2n[nH]c(=S)o2)c1 ?
> 100 µM

Similarly, CC(CN(C)C)C(O)(c1ccccc1)c1ccccc1 (stereo not drawn) ?
> 100 µM

Similarly, CN1C=CN(Cc2ccc(-c3ccccn3)nc2)[CH-]1.CN1C=CN(Cc2ccc(-c3ccccn3)nc2)[CH-]1.[Au+3] ?
10.9 µM

Similarly, Cn1c(=O)c2[nH]cnc2n(C)c1=O ?
> 100 µM

Similarly, O=C(NC(Cc1c[nH]c2ccccc12)C(=O)O)/C(=C/c1ccccc1)NC(=O)c1ccccc1 (stereo not drawn) ?
> 100 µM

Similarly, Cc1cc(I)cc(CN(C)CCCCN2CCCC2)c1O ?
40 µM

Similarly, C[C@@H]1CC[C@H]2C(CN3CCN(CC4=C(C(F)(F)F)O[C@@H]5O[C@@]6(C)CC[C@H]7[C@H](C)CC[C@@H]4[C@@]57OO6)CC3)=C(C(F)(F)F)O[C@@H]3O[C@@]4(C)CC[C@@H]1[C@]32OO4 ?
> 35.9 µM

Similarly, Cc1cc(C(C)(C)C)c(OCCCN2CCOCC2)c(C(C)(C)C)c1 ?
31.4 µM

Similarly, OCC(CO)CC1COc2ccccc2O1 (stereo not drawn) ?
> 10 µM

Similarly, c1csc(-c2csc(-c3cccs3)c2)c1 ?
> 100 µM
